Listing of recorded pIC50 by entry.
Target sequence: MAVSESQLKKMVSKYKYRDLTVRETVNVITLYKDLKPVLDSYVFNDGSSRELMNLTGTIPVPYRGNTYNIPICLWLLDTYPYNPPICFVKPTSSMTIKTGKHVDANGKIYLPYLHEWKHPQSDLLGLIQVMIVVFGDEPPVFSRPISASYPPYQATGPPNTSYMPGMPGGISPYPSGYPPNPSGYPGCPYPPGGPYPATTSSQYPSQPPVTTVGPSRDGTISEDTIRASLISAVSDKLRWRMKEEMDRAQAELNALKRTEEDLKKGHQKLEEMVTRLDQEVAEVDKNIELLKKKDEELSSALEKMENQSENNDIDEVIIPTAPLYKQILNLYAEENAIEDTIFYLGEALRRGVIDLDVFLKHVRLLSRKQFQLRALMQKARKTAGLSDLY
pIC50: −log10 of the molar value. *1 amine or outer side, *2 acyl side, *3 side chain or, on linkers, in order; H or OH if unused. Where a SMILES comes first, the peptide text is derived from it. [ ]: non-standard residue; d: D form. The star is where a group is joined. ξ: configuration not given here. Fluorescein(5-NHCS) = O=C1OC2(c3ccc(O)cc3Oc3cc(O)ccc32)c2cc(NC(=S)*)ccc21; X34 = O=C([C@@H]1[C@@H](O/N=C\c2ccc([N+](=O)[O-])o2)CCN1[*:1])[*:2]; X47 = O=C([C@@H]1C[C@@H](O/N=C\c2ccc([N+](=O)[O-])o2)CN1[*:1])[*:2]; X27 = N#Cc1ccc(/C=N\O[C@@H]2C[C@@H](C(=O)[*:2])N([*:1])C2)cc1; X46 = O=C([C@@H]1C[C@H](O/N=C\CCc2ccccc2)CN1[*:1])[*:2]; X3 = CCCCC/C=N\O[C@H]1CCN([*:1])[C@@H]1C(=O)[*:2]; ξPip = O=C(O)C1CCCCN1; Ava = NCCCCC(=O)O
measured-attribute: pIC50

{"molecule": "C[C@H](NC(=O)[C@@H](NC(=O)[C@@H]1CCCN1C(=O)[C@H](CCC(=O)O)NC(=O)[C@@H]1CCCN1C(=O)CCCCNC(=S)Nc1ccc2c(c1)C1(OC2=O)c2ccc(O)cc2Oc2cc(O)ccc21)[C@@H](C)O)C(=O)N1CCCCC1C(=O)N1CC[C@H](O/N=C\\c2ccc([N+](=O)[O-])o2)[C@H]1C(=O)N[C@@H](CCC(=O)O)C(=O)N[C@@H](CCC(=O)O)C(N)=O (stereo not given in full) ({Fluorescein(5-NHCS)-Ava}-PEPTA[ξPip][X34]EE-NH2)", "measured-attribute": "pIC50", "result": 4.74}
{"molecule": "C[C@H](NC(=O)[C@@H](NC(=O)[C@@H]1CCCN1C(=O)[C@H](CCC(=O)O)NC(=O)[C@@H]1CCCN1C(=O)CCCCNC(=S)Nc1ccc2c(c1)C1(OC2=O)c2ccc(O)cc2Oc2cc(O)ccc21)[C@@H](C)O)C(=O)N1CCCCC1C(=O)N1C[C@H](O/N=C\\c2ccc(C#N)cc2)C[C@H]1C(=O)N[C@@H](CCC(=O)O)C(=O)N[C@@H](CCC(=O)O)C(N)=O (stereo not given in full) ({Fluorescein(5-NHCS)-Ava}-PEPTA[ξPip][X27]EE-NH2)", "measured-attribute": "pIC50", "result": 4.70}
{"molecule": "CCCCC/C=N\\O[C@H]1CCN(C(=O)C2CCCCN2C(=O)[C@H](C)NC(=O)[C@@H](NC(=O)[C@@H]2CCCN2C(=O)[C@H](CCC(=O)O)NC(=O)[C@@H]2CCCN2C(=O)CCCCNC(=S)Nc2ccc3c(c2)C2(OC3=O)c3ccc(O)cc3Oc3cc(O)ccc32)[C@@H](C)O)[C@@H]1C(=O)N[C@@H](CCC(=O)O)C(=O)N[C@@H](CCC(=O)O)C(N)=O (stereo not given in full) ({Fluorescein(5-NHCS)-Ava}-PEPTA[ξPip][X3]EE-NH2)", "measured-attribute": "pIC50", "result": 4.64}
{"molecule": "C[C@H](NC(=O)[C@@H](NC(=O)[C@@H]1CCCN1C(=O)[C@H](CCC(=O)O)NC(=O)[C@@H]1CCCN1C(=O)CCCCNC(=S)Nc1ccc2c(c1)C1(OC2=O)c2ccc(O)cc2Oc2cc(O)ccc21)[C@@H](C)O)C(=O)N1CCCCC1C(=O)N1C[C@H](O/N=C\\c2ccc([N+](=O)[O-])o2)C[C@H]1C(=O)N[C@@H](CCC(=O)O)C(=O)N[C@@H](CCC(=O)O)C(N)=O (stereo not given in full) ({Fluorescein(5-NHCS)-Ava}-PEPTA[ξPip][X47]EE-NH2)", "measured-attribute": "pIC50", "result": 4.92}
{"molecule": "C[C@H](NC(=O)[C@@H](NC(=O)[C@@H]1CCCN1C(=O)[C@H](CCC(=O)O)NC(=O)[C@@H]1CCCN1C(=O)CCCCNC(=S)Nc1ccc2c(c1)C1(OC2=O)c2ccc(O)cc2Oc2cc(O)ccc21)[C@@H](C)O)C(=O)N1CCCCC1C(=O)N1C[C@@H](O/N=C\\CCc2ccccc2)C[C@H]1C(=O)N[C@@H](CCC(=O)O)C(=O)N[C@@H](CCC(=O)O)C(N)=O (stereo not given in full) ({Fluorescein(5-NHCS)-Ava}-PEPTA[ξPip][X46]EE-NH2)", "measured-attribute": "pIC50", "result": 4.08}

Entry source: ChEMBL document CHEMBL1140819
